# credit: ChEMBL document CHEMBL4033786

- assay: Solubility of compound in fasted state simulated intestinal fluid measured after 4 hrs
- Format: physicochemical
// FALSE strictly below 0.06 mg/mL in solubility at 4 h; TRUE otherwise

>  <molecule>
CC1=CCC[C@H]1NC(=O)Nc1ccc(C#N)c(S(=O)(=O)C(C)(C)CC(F)(F)F)c1O

>  <classification>
TRUE

$$$$
>  <molecule>
CC1=CCC[C@H]1NC(=O)Nc1ccc(Cl)c(S(=O)(=O)C2(C)CCOCC2)c1O

>  <classification>
FALSE

$$$$
>  <molecule>
CC1=CCC[C@H]1NC(=O)Nc1ccc(Cl)c(S(=O)(=O)C2(F)CCOC2)c1O (stereo partly drawn)

>  <classification>
FALSE

$$$$
>  <molecule>
CC1=CCC[C@H]1NC(=O)Nc1ccc(Cl)c(S(=O)(=O)C(C)(C)[C@@H]2CCOC2)c1O

>  <classification>
FALSE

$$$$
>  <molecule>
CC1=CCC[C@H]1NC(=O)Nc1ccc(Cl)c(S(=O)(=O)C2CCCOC2)c1O (stereo partly drawn)

>  <classification>
FALSE

$$$$
>  <molecule>
CC1=CCC[C@H]1NC(=O)Nc1ccc(Cl)c(S(=O)(=O)C2(CF)CCOCC2)c1O

>  <classification>
FALSE

$$$$

Challenge: Quick check, solubility at 4 h >= 0.06 mg/mL? CC1=CCC[C@H]1NC(=O)Nc1ccc(Cl)c(S(=O)(=O)C(C)(C)C)c1O
Response given: FALSE

Challenge: Quick check, solubility at 4 h >= 0.06 mg/mL? COCC(C)S(=O)(=O)c1c(Cl)ccc(NC(=O)N[C@@H]2CCC=C2C)c1O (stereo partly drawn)
Response given: TRUE

Challenge: Quick check, solubility at 4 h >= 0.06 mg/mL? CC1=CCC[C@H]1NC(=O)Nc1ccc(Cl)c(S(=O)(=O)C2(C)CCN(C3CCC3)CC2)c1O
Response given: TRUE

Challenge: Quick check, solubility at 4 h >= 0.06 mg/mL? CC1=CCC[C@H]1NC(=O)Nc1ccc(Cl)c(S(=O)(=O)[C@@]2(C)CCOC2)c1O
Response given: FALSE

Challenge: Quick check, solubility at 4 h >= 0.06 mg/mL? CCC1(S(=O)(=O)c2c(Cl)ccc(NC(=O)N[C@@H]3CCC=C3C)c2O)CCOCC1
Response given: FALSE

Challenge: Quick check, solubility at 4 h >= 0.06 mg/mL? CC1=CCC[C@H]1NC(=O)Nc1ccc(C#N)c(S(=O)(=O)C(C)(C)C)c1O
Response given: TRUE

Challenge: Quick check, solubility at 4 h >= 0.06 mg/mL? CC1=CCC[C@H]1NC(=O)Nc1ccc(Cl)c(S(=O)(=O)[C@]2(C)CCOC2)c1O
Response given: FALSE

Challenge: Quick check, solubility at 4 h >= 0.06 mg/mL? CC1=CCC[C@H]1NC(=O)Nc1ccc(Cl)c(S(=O)(=O)C(C)(C)[C@H]2CCOC2)c1O
Response given: FALSE

Challenge: Quick check, solubility at 4 h >= 0.06 mg/mL? CC1=CCC[C@H]1NC(=O)Nc1ccc(Cl)c(S(=O)(=O)C2(F)CCOCC2)c1O
Response given: FALSE

Challenge: Quick check, solubility at 4 h >= 0.06 mg/mL? CC1=CCC[C@H]1NC(=O)Nc1ccc(Cl)c(S(=O)(=O)C(C)(C)C(F)(F)F)c1O
Response given: FALSE
